Reference source for all entries: ChEMBL document CHEMBL2046424

Tested on: Staphylococcus aureus
Experiment: Antibacterial activity against methicillin-sensitive Staphylococcus aureus ATCC 25923 at 256 ug/ml after 24 hrs by disc diffusion method
Format: functional, organism-based
Calls of active or inactive are those of the source. The calls are words filed in the database; no cut-off is given here.
property: diameter of the inhibition zone (DIZ)

Known results for compounds:
Reported diameter of the inhibition zone (DIZ) (Staphylococcus aureus) for entry COc1ccc(C(=O)/C=C/c2ccccc2)c(O)c1 is inactive

Known value: Staphylococcus aureus diameter of the inhibition zone (DIZ) of the compound COc1ccc(C(=O)/C=C/c2ccc(Cl)c(Cl)c2)c(O)c1 equals inactive

Given the compound COc1cccc(/C=C/C(=O)c2ccc(Br)cc2)c1OC and test system Staphylococcus aureus, the measured diameter of the inhibition zone (DIZ) is inactive

Staphylococcus aureus data for O=C(/C=C/c1ccccc1)c1ccccc1 ; its diameter of the inhibition zone (DIZ): inactive

Lab entry: Staphylococcus aureus assay, compound COc1ccccc1/C=C/C(=O)c1ccc(Br)cc1 , diameter of the inhibition zone (DIZ) = inactive

Query COc1ccc(/C=C/C(=O)c2ccc(Br)cc2)cc1 on Staphylococcus aureus; diameter of the inhibition zone (DIZ) returned: inactive

Readout diameter of the inhibition zone (DIZ) for COc1ccc(/C=C/C(=O)c2ccc(OC)cc2O)cc1 , test system Staphylococcus aureus, was inactive

Record O=C(/C=C/c1ccccc1)c1ccc(Br)cc1 has Staphylococcus aureus diameter of the inhibition zone (DIZ) equal to inactive

Observed diameter of the inhibition zone (DIZ) on Staphylococcus aureus, entry COc1cccc(/C=C/C(=O)c2ccccc2)c1OC , equals inactive

Note to self: diameter of the inhibition zone (DIZ) of COc1ccc(C(=O)/C=C/c2ccc(OC)cc2OC)c(O)c1 with Staphylococcus aureus was inactive

Proceed to the following item.
Entry COc1ccc(/C=C/C(=O)c2ccccc2)cc1 , tested on Staphylococcus aureus, has a reported diameter of the inhibition zone (DIZ) of inactive
